All values here come from ChEMBL document CHEMBL4257446.

System: MDA-MB-231
measurement-notes: Antiproliferative activity against human MDA-MB-231 cells after 24 hrs by MTT assay
Type: functional, cell-based
experimental-setup: MDA-MB-231, 24 h
Measured IC50 values are reported for all entries that follow.
# output: numeric value plus its unit

query: Item "COc1ccc(-c2cc(C(=O)/C=C/c3cc(OC)c(OC)c(OC)c3)nc3cc(-c4ccccc4)nn23)cc1OC" has what recorded IC50?
result: 16.7 µM

query: Item under review: "C#Cc1cccc(Nc2ncnc3cc(OCCOC)c(OCCOC)cc23)c1" . Reported IC50?
result: 14.7 µM

query: Give its IC50 value. Item: "COc1ccc(C(=O)/C=C/c2cc(-c3ccc(OC)c(OC)c3)n3nc(-c4ccccc4)cc3n2)cc1"
result: 13.9 µM

====

System: MDA-MB-231
measurement-notes: Antiproliferative activity against human MDA-MB-231 cells after 24 hrs by MTT assay
Format: functional, cell-based
experimental-setup: MDA-MB-231, 24 h
attribute-measured: IC50 (µM)
Please give a number only; it is taken to be in µM.

query: For "COc1ccc(C(=O)/C=C/c2cc(-c3ccc(OC)c(OC)c3)n3nc(-c4ccccc4)cc3n2)cc1OC" , what is its reported IC50?
result: 2.6

====

Recorded pIC50 by entry
System: A549
measurement-notes: Antiproliferative activity against human A549 cells after 24 hrs by MTT assay
Format: functional, cell-based
experimental-setup: A549, 24 h
Remember, pIC50 is on a log scale: it is -log10 of the molar concentration.

query: May I ask what pIC50 has been recorded for "COc1ccc(C(=O)/C=C/c2cc(-c3cc(OC)c(OC)c(OC)c3)n3nc(-c4ccccc4)cc3n2)cc1" ?
result: 4.84

query: // returns reported pIC50 for input "COc1ccc(-c2cc(/C=C/C(=O)c3cc(OC)c(OC)c(OC)c3)nc3cc(-c4ccccc4)nn23)cc1OC"
result: 5.14

query: Given "COc1cc(-c2cc(C(=O)/C=C/c3ccc(Cl)cc3)nc3cc(-c4ccccc4)nn23)cc(OC)c1OC" , state its recorded pIC50.
result: 4.62

query: I would be grateful if you could share the reported pIC50 for "COc1ccc(-c2cc(C(=O)/C=C/c3ccc(Cl)cc3)nc3cc(-c4ccccc4)nn23)cc1OC" .
result: 4.66

query: Requested field: pIC50. Item: "COc1ccc(-c2cc(C(=O)/C=C/c3ccccc3)nc3cc(-c4ccccc4)nn23)cc1OC"
result: 4.73

query: Sample "COc1cc(-c2cc(C(=O)/C=C/c3ccc(C)cc3)nc3cc(-c4ccccc4)nn23)cc(OC)c1OC" — what was its pIC50?
result: 4.70

query: Consider the compound "COc1cc(C(=O)/C=C/c2cc(-c3cc(OC)c(OC)c(OC)c3)n3nc(-c4ccccc4)cc3n2)cc(OC)c1OC" and give its measured pIC50.
result: 4.69

query: Query: pIC50; subject: "COc1cc(-c2cc(/C=C/C(=O)c3ccc(C)c(C)c3)nc3cc(-c4ccccc4)nn23)cc(OC)c1OC"
result: 4.97

====

Test system: A549
measurement-notes: Decrease in STAT3 protein expression in human A549 cells in STAT3 levels at 2 uM after 24 hrs by Western blot analysis
Type: functional, cell-based
Active and inactive are the calls of the source. The rule behind the calls is not given here.
Returns: one label drawn from 1 = active, -1 = inactive

As a guide, the following entries are already answered.
compound: COc1ccc(C(=O)/C=C/c2cc(-c3ccc(OC)cc3)n3nc(-c4ccccc4)cc3n2)cc1
class-assignment: 1

compound: COc1ccc(-c2cc(/C=C/C(=O)c3cc(OC)c(OC)c(OC)c3)nc3cc(-c4ccccc4)nn23)cc1OC
class-assignment: 1

compound: C#Cc1cccc(Nc2ncnc3cc(OCCOC)c(OCCOC)cc23)c1 [ERLOTINIB]
class-assignment: -1

Alright, here's another compound for you.
query: Recorded test call requested for "COc1ccc(C(=O)/C=C/c2cc(-c3ccc(OC)c(OC)c3)n3nc(-c4ccccc4)cc3n2)cc1OC"
result: 1

====

System: A549
measurement-notes: Antiproliferative activity against human A549 cells after 24 hrs by MTT assay
Type: functional, cell-based
experimental-setup: A549, 24 h
attribute-measured: IC50 (µM)
Note: unit µM is implicit; provide only the numeric part.

Completed entries (count: 3):
molecule: COc1cc(-c2cc(C(=O)/C=C/c3ccccc3)nc3cc(-c4ccccc4)nn23)cc(OC)c1OC
IC50 [µM]: 18

molecule: COc1ccc(C(=O)/C=C/c2cc(-c3cc(OC)c(OC)c(OC)c3)n3nc(-c4ccccc4)cc3n2)cc1OC
IC50 [µM]: 17.8

molecule: COc1ccc(C(=O)/C=C/c2cc(-c3ccc(OC)cc3)n3nc(-c4ccccc4)cc3n2)cc1
IC50 [µM]: 2.9

# ---- query compound ----
query: What value of IC50 on A549 does "C#Cc1cccc(Nc2ncnc3cc(OCCOC)c(OCCOC)cc23)c1" have?
result: 10.4

====

Tested on: HEK293
measurement-notes: Antiproliferative activity against HEK293 cells after 24 hrs by MTT assay
Assay type: cell-based
experimental-setup: Homo sapiens, HEK293, 24 h
attribute-measured: pIC50
Scale note: pIC50 = -log10(concentration in M).

Example compounds with recorded pIC50:
compound: COc1ccc(C(=O)/C=C/c2cc(-c3cc(OC)c(OC)c(OC)c3)n3nc(-c4ccccc4)cc3n2)cc1OC
assay-result: 4.09
--
compound: COc1ccc(-c2cc(C(=O)/C=C/c3ccc(Cl)cc3)nc3cc(-c4ccccc4)nn23)cc1OC
assay-result: 4.41

query: Data request, read-out pIC50, for "COc1ccc(-c2cc(/C=C/C(=O)c3ccc(C)cc3)nc3cc(-c4ccccc4)nn23)cc1OC"
result: 4.20

query: Please report the recorded pIC50 for "COc1ccc(-c2cc(/C=C/C(=O)c3ccc(C)c(C)c3)nc3cc(-c4ccccc4)nn23)cc1OC" .
result: 4.34

query: Which value of pIC50 has been reported for "COc1cc(-c2cc(C(=O)/C=C/c3ccc(Cl)cc3)nc3cc(-c4ccccc4)nn23)cc(OC)c1OC" in the records?
result: 4.27

query: # get_value(readout='pIC50', item= "COc1ccc(-c2cc(/C=C/C(=O)c3ccc(Cl)cc3)nc3cc(-c4ccccc4)nn23)cc1OC" )
result: 4.36

query: Which pIC50 is reported for this compound? "COc1ccc(/C=C/C(=O)c2cc(-c3cc(OC)c(OC)c(OC)c3)n3nc(-c4ccccc4)cc3n2)cc1OC"
result: 4.39

query: Need pIC50, item C#Cc1cccc(Nc2ncnc3cc(OCCOC)c(OCCOC)cc23)c1 [ERLOTINIB]
result: 4.52

query: Consider the compound "COc1cc(/C=C/C(=O)c2cc(-c3cc(OC)c(OC)c(OC)c3)n3nc(-c4ccccc4)cc3n2)cc(OC)c1OC" and give its measured pIC50.
result: 4.39

query: Reported pIC50 for "COc1ccc(C(=O)/C=C/c2cc(-c3ccc(OC)c(OC)c3)n3nc(-c4ccccc4)cc3n2)cc1OC" : what is it?
result: 4.49

query: # lookup: pIC50 of "COc1ccc(-c2cc(C(=O)/C=C/c3cc(OC)c(OC)c(OC)c3)nc3cc(-c4ccccc4)nn23)cc1OC"
result: 4.33

====

Tested on: MDA-MB-231
measurement-notes: Antiproliferative activity against human MDA-MB-231 cells after 24 hrs by MTT assay
Type: functional, cell-based
experimental-setup: MDA-MB-231, 24 h
attribute-measured: IC50 (µM)
Could you give me the number in µM? Just the number is fine.

Worked cases, answers included:
molecule: COc1cc(/C=C/C(=O)c2cc(-c3cc(OC)c(OC)c(OC)c3)n3nc(-c4ccccc4)cc3n2)cc(OC)c1OC
assay-result: 18.4
--
molecule: COc1ccc(-c2cc(/C=C/C(=O)c3ccc(Cl)cc3)nc3cc(-c4ccccc4)nn23)cc1OC
assay-result: 17.1
--
molecule: COc1ccc(-c2cc(/C=C/C(=O)c3ccccc3)nc3cc(-c4ccccc4)nn23)cc1OC
assay-result: 11.8

query: Entry "COc1cc(-c2cc(/C=C/C(=O)c3ccccc3)nc3cc(-c4ccccc4)nn23)cc(OC)c1OC" has what IC50?
result: 15.8

====

Tested on: HEK293
measurement-notes: Antiproliferative activity against HEK293 cells after 24 hrs by MTT assay
Format: cell-based
experimental-setup: Homo sapiens, HEK293, 24 h
Threshold-based label: IC50 under 50 µM gives label 1, IC50 not under 50 µM gives label 0.

molecule: COc1cc(C(=O)/C=C/c2cc(-c3cc(OC)c(OC)c(OC)c3)n3nc(-c4ccccc4)cc3n2)cc(OC)c1OC
class-assignment: label 0
--
molecule: COc1cc(-c2cc(/C=C/C(=O)c3ccc(Cl)cc3)nc3cc(-c4ccccc4)nn23)cc(OC)c1OC
class-assignment: label 0
--
molecule: COc1cc(-c2cc(/C=C/C(=O)c3ccc(C)c(C)c3)nc3cc(-c4ccccc4)nn23)cc(OC)c1OC
class-assignment: label 0
--
molecule: COc1ccc(-c2cc(/C=C/C(=O)c3ccccc3)nc3cc(-c4ccccc4)nn23)cc1
class-assignment: label 0

# evaluate next
query: Identify whether the compound "COc1ccc(C(=O)/C=C/c2cc(-c3ccc(OC)cc3)n3nc(-c4ccccc4)cc3n2)cc1" records IC50 below 50 µM.
result: label 1
